fold change in fluorescence relative to zaprinast alone values by entry
Tested on: GCaMP5-expressing T. gondii
Construct: whole extracellular parasites expressing GCaMP5 Ca2+ sensor
Set-up: species or system GCaMP5-expressing Toxoplasma gondii, extracellular; GCaMP5 fluorescence (cytosolic Ca2+) after 100 uM zaprinast in compound-pretreated extracellular parasites, background-subtracted, relative to zaprinast alone
Details: 100 uM zaprinast stimulation; 10 min pretreatment; mean of two replicates; 0.23 h
MEASURED ATTRIBUTE: fold change in fluorescence relative to zaprinast alone

> print(dat)
                                   molecule  result
1  CCn1c(-c2nonc2N)nc2cncc(CNC3CCNCC3)c21 [SB-747651-A]   1.501
2  COc1c(C(N)=O)cc(-c2ccc(Cl)cc2)cc1-c1ccc(S(N)(=O)=O)cc1 [GSK711701A]   1.357
3  COc1cccc(-n2ncc3c(N/N=C/c4ccc(F)cc4)ncnc32)c1 [GW817396X]   1.185
4  CSc1ccc(NC2=C(c3ccccc3Cl)C(=O)NC2=O)cc1 [SB-342411]  0.8828
5  Fc1cc(Cl)ccc1Nc1ccnc2cc(-c3ccc(CN4CCSCC4)o3)ccc12 [GW560106X]  0.6773
6  Nc1ncnc2c1ncn2-c1cccc2ccccc12 [SKF-97184]  0.9854
7  NS(=O)(=O)c1ccc(Nc2cc(-c3cccc(O)c3)n[nH]2)cc1 [GW831090X]   1.167
